MEASURED ON: VEGFR2, unphosphorylated (Homo sapiens (Human))
Sequence (P35968 20-1356): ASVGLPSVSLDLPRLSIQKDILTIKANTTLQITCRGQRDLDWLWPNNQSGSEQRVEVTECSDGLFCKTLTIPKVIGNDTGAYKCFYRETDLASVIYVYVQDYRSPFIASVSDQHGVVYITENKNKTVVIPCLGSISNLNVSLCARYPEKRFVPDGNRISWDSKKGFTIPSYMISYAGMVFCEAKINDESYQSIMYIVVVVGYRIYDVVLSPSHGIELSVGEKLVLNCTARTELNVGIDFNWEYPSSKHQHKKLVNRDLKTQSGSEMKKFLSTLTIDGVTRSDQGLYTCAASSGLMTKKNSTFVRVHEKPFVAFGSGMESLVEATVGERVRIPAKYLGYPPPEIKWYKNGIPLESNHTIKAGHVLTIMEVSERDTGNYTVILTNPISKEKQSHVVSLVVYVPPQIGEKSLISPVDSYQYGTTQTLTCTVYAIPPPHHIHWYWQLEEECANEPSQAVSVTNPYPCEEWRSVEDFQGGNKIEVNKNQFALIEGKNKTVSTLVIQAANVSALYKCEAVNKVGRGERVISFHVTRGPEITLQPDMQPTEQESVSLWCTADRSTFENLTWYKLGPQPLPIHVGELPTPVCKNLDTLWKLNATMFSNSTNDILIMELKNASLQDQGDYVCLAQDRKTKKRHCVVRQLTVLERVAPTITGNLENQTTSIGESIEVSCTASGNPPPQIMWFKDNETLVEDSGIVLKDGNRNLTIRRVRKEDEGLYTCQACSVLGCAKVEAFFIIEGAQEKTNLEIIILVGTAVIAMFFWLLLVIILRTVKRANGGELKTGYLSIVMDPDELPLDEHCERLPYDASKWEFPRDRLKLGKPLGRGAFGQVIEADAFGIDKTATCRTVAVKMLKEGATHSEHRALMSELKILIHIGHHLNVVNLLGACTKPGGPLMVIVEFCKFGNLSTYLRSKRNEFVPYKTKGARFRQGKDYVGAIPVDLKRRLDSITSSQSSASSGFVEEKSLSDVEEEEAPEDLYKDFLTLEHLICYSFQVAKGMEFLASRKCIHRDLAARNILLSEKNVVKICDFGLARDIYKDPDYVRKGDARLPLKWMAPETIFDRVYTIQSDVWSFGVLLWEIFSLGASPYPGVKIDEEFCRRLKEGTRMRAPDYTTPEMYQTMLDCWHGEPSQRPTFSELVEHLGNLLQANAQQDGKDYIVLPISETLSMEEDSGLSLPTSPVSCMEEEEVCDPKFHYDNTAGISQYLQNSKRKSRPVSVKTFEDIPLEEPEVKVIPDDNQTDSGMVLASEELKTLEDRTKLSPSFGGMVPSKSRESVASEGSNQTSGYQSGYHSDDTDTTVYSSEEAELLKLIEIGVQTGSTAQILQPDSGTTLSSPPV
EXPERIMENT NOTES: VEGFR ADP GLO Assay
pIC50: −log10 of the molar value.
READOUT NAME: pIC50

COc1ncccc1-c1cn2ncc(C(=O)Nc3cc(NC(=O)CN4CC(F)C4)cnc3C)c2s1 :: < 5.12
Cc1ncc(NC(=O)CN2CCC(C)(C)C2)cc1NC(=O)c1cnn2cc(-c3cnn(CCO)c3)sc12 :: < 5.12
Cc1ncc(C(=O)NCCN2CC(C)(C)C2)cc1NC(=O)c1cnn2cc(-c3cccnc3)sc12 :: < 5.12

Challenge: Field request: pIC50 | item: "Cc1ncc(C(=O)NCCN2CCCC(F)(F)C2)cc1NC(=O)c1cnn2cc(-c3cnn(C)c3)sc12"
Response given: < 5.12

Challenge: One more molecule: "COCCn1cc(-c2cn3ncc(C(=O)Nc4cc(NC(=O)CCN5CCC56CCC6)cnc4C)c3s2)cn1"
Response given: < 5.12

Challenge: One more molecule: "COc1ncccc1-c1cn2ncc(C(=O)Nc3cc(NC(=O)CN4CC5(COC5)C4)cnc3C)c2s1"
Response given: < 5.12

Challenge: One more molecule: "Cc1ncc(NC(=O)CN2CC(C)(C)C2)cc1NC(=O)c1cnn2cc(-c3cnn(C)c3C)sc12"
Response given: 5.28

Challenge: One more molecule: "COCCn1cc(-c2cn3ncc(C(=O)Nc4cc(NC(=O)CN5CC(C)(C)C5)cnc4C)c3s2)cn1"
Response given: < 5.12

Challenge: One more molecule: COCCn1cc(-c2cn3ncc(C(=O)Nc4cc(NC(=O)CN5CC[C@H](C)C5)cnc4C)c3s2)cn1 (single isomer, unassigned)
Response given: < 5.12

Challenge: One more molecule: Cc1ncc(NC(=O)CN2C[C@H](C)O[C@@H](C)C2)cc1NC(=O)c1cnn2cc(-c3c(C)n[nH]c3C)sc12 (relative stereo)
Response given: < 5.12

Challenge: One more molecule: Cc1ncc(C(=O)NCCN2CC3CCC2C3)cc1NC(=O)c1cnn2cc(-c3cn(C)nc3C)sc12 (stereo not drawn)
Response given: < 5.12

Challenge: One more molecule: "COc1cnccc1-c1cn2ncc(C(=O)Nc3cc(NC(=O)CN4CC(C)(C)C4)cnc3C)c2s1"
Response given: 5.32

Challenge: One more molecule: "Cc1ncc(NC(=O)CN2Cc3ncsc3C2)cc1NC(=O)c1cnn2cc(-c3cnn(C)c3)sc12"
Response given: < 5.12

Challenge: One more molecule: "Cc1ncc(NC(=O)OC[C@@H]2CCCN2C)cc1NC(=O)c1cnn2cc(-c3cnn(C)c3)sc12"
Response given: < 5.12

Challenge: One more molecule: "Cc1cc(C(=O)NCCN2CCC(C)(C)C2)sc1NC(=O)c1cnn2cc(-c3cnn(C)c3)sc12"
Response given: < 5.12

###

MEASURED ON: His6-TEV-PDGFRβ (557-1016) (Homo sapiens (Human))
List of IC50 values.
Just the number in nM, nothing appended.

Worked set:
Cc1cc(C(=O)NCCN(C)C2CCOCC2)sc1NC(=O)c1cnn2cc(-c3cnn(C)c3)sc12 :: 34.6
Cc1ncc(NC(=O)CN2CC(C)(C)C2)cc1NC(=O)c1cnn2cc(-c3cnn(CCS(C)(=O)=O)c3)sc12 :: 0.6
Cc1ncc(NC(=O)CN2C[C@H](C)O[C@@H](C)C2)cc1NC(=O)c1cnn2cc(-c3cnn(C)c3)sc12 :: 0.3

Challenge: Field request: IC50 | item: "Cc1ncc(NC(=O)CN2CCc3cnn(C)c3C2)cc1NC(=O)c1cnn2cc(-c3cnn(C)c3)sc12"
Response given: 0.5

###

MEASURED ON: VEGFR2, unphosphorylated (Homo sapiens (Human))
EXPERIMENT NOTES: VEGFR ADP GLO Assay
READOUT NAME: IC50

Worked set:
COCCn1cc(-c2cn3ncc(C(=O)Nc4cc(NC(=O)C[C@@H]5CCCN5C(C)C)cnc4C)c3s2)cn1 :: > 7.5 µM
Cc1ncc(C(=O)NCCN2CC3CCC2CC3)cc1NC(=O)c1cnn2cc(-c3ccc4oc(=O)[nH]c4c3)sc12 :: > 0.833 µM

Okay, now this compound:
Challenge: Field request: IC50 | item: "Cc1ncc(NC(=O)CN(C)C2CCOCC2)cc1NC(=O)c1cnn2cc(-c3cnn(C)c3)sc12"
Response given: > 7.5 µM

###

// each record: one item and its pIC50 for His6-TEV-PDGFRβ (557-1016) (Homo sapiens (Human), UniProt P09619)
Reminder that pIC50 means the negative base-10 logarithm of the concentration expressed in mol/L.

COCCn1cc(-c2cn3ncc(C(=O)Nc4cc(C(=O)NCCN5CC(C)(C)C5)cnc4C)c3s2)cn1 [Example 166] :: 9.15
Cc1ncc(C(=O)NCCN2CCCC23CCC3)cc1NC(=O)c1cnn2cc(-c3cnn4c3CCC4)sc12 [Example 461] :: 9.70
COCCn1cc(-c2cn3ncc(C(=O)Nc4cc(NC(=O)CN5CCCCCC5)cnc4C)c3s2)cn1 [Example 339] :: 9.40
Cc1ncc(NC(=O)NCCC2CCN(C)CC2)cc1NC(=O)c1cnn2cc(-c3cnn(C)c3)sc12 [Example 108] :: 7.97
COc1cnccc1-c1cn2ncc(C(=O)Nc3cc(NC(=O)CN4CC(C)(C)C4)cnc3C)c2s1 [Example 399] :: 9.70

Challenge: Field request: pIC50 | item: Cc1ncc(NC(=O)CN2CCCC2(C)C)cc1NC(=O)c1cnn2cc(-c3cccnc3OCCF)sc12 [Example 448]
Response given: 9.70

Challenge: One more molecule: Cc1ncc(C(=O)NCCN2CCC(F)(F)CC2)cc1NC(=O)c1cnn2cc(-c3cccnc3)sc12 [Example 157]
Response given: 9.22

Challenge: One more molecule: Cc1cc(C(=O)NCCN2CCC3(CCC3)CC2)sc1NC(=O)c1cnn2cc(-c3cnn(C)c3)sc12 [Example 203]
Response given: 7.60

###

List of IC50 values.
MEASURED ON: His6-TEV-PDGFRβ (557-1016) (Homo sapiens (Human), UniProt P09619)
Sequence (P09619 557-1016): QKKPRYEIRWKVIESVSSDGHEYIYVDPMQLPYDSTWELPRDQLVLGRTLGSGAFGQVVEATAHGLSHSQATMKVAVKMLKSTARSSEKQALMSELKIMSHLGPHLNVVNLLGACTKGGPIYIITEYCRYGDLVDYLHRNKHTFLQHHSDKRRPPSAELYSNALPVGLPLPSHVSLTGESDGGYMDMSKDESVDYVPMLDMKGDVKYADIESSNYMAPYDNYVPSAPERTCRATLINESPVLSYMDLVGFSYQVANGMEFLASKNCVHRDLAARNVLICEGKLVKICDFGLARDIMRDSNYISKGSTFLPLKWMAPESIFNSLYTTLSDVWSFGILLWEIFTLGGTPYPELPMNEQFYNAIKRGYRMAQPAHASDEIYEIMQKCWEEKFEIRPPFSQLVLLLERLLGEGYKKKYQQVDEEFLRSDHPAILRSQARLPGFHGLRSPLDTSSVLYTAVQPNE
State the value with its unit after it.

Worked set:
Cc1ncc(C(=O)NCCN2CC(C)(C)C2)cc1NC(=O)c1cnn2cc(-c3cnn4c3CCC4)sc12 [Example 482] :: 0.2 nM
Cc1ncc(C(=O)NCCN2CC3CCC2CC3)cc1NC(=O)c1cnn2cc(-c3cnn(CC#N)c3)sc12 [Example 151] :: 0.3 nM
COCCn1cc(-c2cn3ncc(C(=O)Nc4cc(NC(=O)CN5C6CCC5CC6)cnc4C)c3s2)cn1 [Example 340] :: 0.5 nM
CC(=O)Nc1cncc(-c2cn3ncc(C(=O)Nc4cc(NC(=O)CN5CC(C)(C)C5)cnc4C)c3s2)c1 [Example 277] :: 0.4 nM
Cc1ncc(NC(=O)CNCC(C)C)cc1NC(=O)c1cnn2cc(-c3cnn4c3OCCC4)sc12 [Example 414] :: 0.4 nM

Challenge: Field request: IC50 | item: Cc1ncc(C(=O)NCCN2CCCC23CCC3)cc1NC(=O)c1cnn2cc(-c3cnn4c3OCCC4)sc12 [Example 478]
Response given: 0.3 nM

Challenge: One more compound: Cc1ncc(C(=O)NCCNC2CCC2)cc1NC(=O)c1cnn2cc(-c3cnn4c3CCC4)sc12 [Example 491]
Response given: 0.3 nM

###

List of IC50 values.
MEASURED ON: UniProt Q05030
Sequence (Q05030 32-1097): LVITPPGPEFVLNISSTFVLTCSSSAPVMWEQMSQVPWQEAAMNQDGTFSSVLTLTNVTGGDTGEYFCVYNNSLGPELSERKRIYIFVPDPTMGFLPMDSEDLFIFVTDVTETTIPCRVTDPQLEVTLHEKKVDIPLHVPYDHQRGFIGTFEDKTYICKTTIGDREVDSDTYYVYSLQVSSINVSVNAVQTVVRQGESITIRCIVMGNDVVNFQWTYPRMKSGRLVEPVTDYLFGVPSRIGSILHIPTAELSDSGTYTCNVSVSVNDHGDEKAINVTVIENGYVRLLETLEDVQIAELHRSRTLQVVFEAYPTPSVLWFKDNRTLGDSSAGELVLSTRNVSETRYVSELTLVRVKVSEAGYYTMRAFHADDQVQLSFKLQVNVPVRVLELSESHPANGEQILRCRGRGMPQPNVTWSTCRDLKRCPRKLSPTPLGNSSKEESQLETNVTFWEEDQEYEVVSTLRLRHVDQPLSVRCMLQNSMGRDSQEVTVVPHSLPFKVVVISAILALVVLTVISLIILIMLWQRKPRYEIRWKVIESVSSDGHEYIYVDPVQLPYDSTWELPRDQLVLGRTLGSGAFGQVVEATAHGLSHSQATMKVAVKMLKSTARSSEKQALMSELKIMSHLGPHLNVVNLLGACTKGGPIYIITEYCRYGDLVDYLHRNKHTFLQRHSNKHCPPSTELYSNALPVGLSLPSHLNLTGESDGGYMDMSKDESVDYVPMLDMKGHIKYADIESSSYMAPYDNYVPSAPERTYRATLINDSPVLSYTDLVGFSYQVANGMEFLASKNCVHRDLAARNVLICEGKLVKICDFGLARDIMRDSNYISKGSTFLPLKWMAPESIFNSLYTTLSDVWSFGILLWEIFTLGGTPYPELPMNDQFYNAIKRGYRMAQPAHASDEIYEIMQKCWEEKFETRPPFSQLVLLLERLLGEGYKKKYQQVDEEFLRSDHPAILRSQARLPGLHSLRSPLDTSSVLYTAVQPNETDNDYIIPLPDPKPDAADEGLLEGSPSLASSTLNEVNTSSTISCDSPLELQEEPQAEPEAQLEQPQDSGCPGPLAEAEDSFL
EXPERIMENT NOTES: PDGFRβ Cellular Assay (PDGFRb P-Y751 HTRF in A10 cells stimulated with PDGF-BB)
Type: cell-based
CONDITIONS: read-out: PDGFR Cellular IC50
Just the number in nM, nothing appended.

Worked set:
COc1cccc(-c2cn3ncc(C(=O)Nc4cc(NC(=O)CN5CC(C)(C)C5)cnc4C)c3s2)n1 :: 1.8
Cc1ncc(NC(=O)CN2CCC[C@@H]2C)cc1NC(=O)c1cnn2cc(-c3ccnc(N4CCOCC4)c3)sc12 :: 2.8
Cc1ncc(NC(=O)CN2CC3CCC(C2)O3)cc1NC(=O)c1cnn2cc(-c3cc[nH]c3)sc12 :: 7.7

Okay, now this compound:
Challenge: Hi! What's the reported IC50 for "Cc1ncc(NC(=O)CN(C)C2CCOCC2)cc1NC(=O)c1cnn2cc(-c3cnn(C)c3)sc12" on UniProt Q05030?
Response given: 15.7

###

MEASURED ON: His6-TEV-PDGFRβ (557-1016) (Homo sapiens (Human), UniProt P09619)
Threshold 1000 pM. IC50 below it: t. IC50 at it or above: f.

Cc1ncc(NC(=O)CN2CCC2)cc1NC(=O)c1cnn2cc(-c3cnn4c3OCCC4)sc12 [Example 412] :: f

Challenge: Problem: For the molecule Cc1ncc(C(=O)NCCN2CC(F)(F)C2)cc1NC(=O)c1cnn2cc(-c3cnn(C)c3)sc12 [Example 125] , is IC50 under 1000 pM?
Response given: t

Challenge: One more molecule: Cc1ncc(NC(=O)CN(C)C2CCOCC2)cc1NC(=O)c1cnn2cc(-c3cnn(CS(C)(=O)=O)c3)sc12 [Example 298]
Response given: t

Challenge: One more molecule: Cc1ncc(NC(=O)CN2C[C@H](CO)OC(C)(C)C2)cc1NC(=O)c1cnn2cc(-c3cnn(C)c3)sc12 [Example 376]
Response given: t

Challenge: One more molecule: COc1ncccc1-c1cn2ncc(C(=O)Nc3cc(C(=O)NCCN4CCC[C@@H]4C)cnc3C)c2s1 [Example 301]
Response given: t

Challenge: One more molecule: COc1ncccc1-c1cn2ncc(C(=O)Nc3cc(NC(=O)C[C@@H]4CCCN4C(C)C)cnc3C)c2s1 [Example 323]
Response given: t

Challenge: One more molecule: Cc1ncc(C(=O)NCCN2CCC3(CC3)C2)cc1NC(=O)c1cnn2cc(-c3cnn(C)c3C)sc12 [Example 170]
Response given: t

Challenge: One more molecule: Cc1ncc(NC(=O)OCCN2CCCC2)cc1NC(=O)c1cnn2cc(-c3cnn(C)c3)sc12 [Example 246]
Response given: f
